TARGET OR TEST SYSTEM: T1, thyroid stimulating hormone receptor (full length human TSHR) (human, UniProt P16473 22-764)
T1 construct: Full length TSHR coated onto plastic tubes (TSHR coated tubes, as in WO2004/050708A2); also called TSH receptor
PROTOCOL NOTES: competitor ^125I-K1-70 IgG, TSHR coated tubes; 3 µg/mL in HBD

[
  {
    "BINDER": "K1-18 Fab (Fab, V domains shown) VH: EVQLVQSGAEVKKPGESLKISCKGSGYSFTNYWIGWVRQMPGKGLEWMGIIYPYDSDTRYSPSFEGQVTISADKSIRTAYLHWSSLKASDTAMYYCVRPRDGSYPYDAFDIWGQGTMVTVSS VL: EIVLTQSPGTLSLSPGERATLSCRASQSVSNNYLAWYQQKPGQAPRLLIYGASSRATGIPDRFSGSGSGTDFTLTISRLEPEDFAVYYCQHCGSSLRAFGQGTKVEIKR",
    "Inhibition of binding (%)": 80.5
  }
]
